# Tested on: UO-31 renal
# experiment: NCI-60 one-dose screen, 48 h (100 = growth as untreated, 0 = no growth, -100 = all killed)
# conditionsUsed: 10 µM unless noted
Compounds without any hit were thinned out: in the full panel of roughly 83,000, 20% have a hit.
metricName: growth (%)
Provide the reading as a plain figure in %.

Some solved cases for reference:
[
  {
    "smilesCode": "c1ccc(-c2nc(Nc3ccc(-c4nc5ccccc5[nH]4)cc3)nc(N3CCOCC3)n2)cc1",
    "growth, %": -60.6
  },
  {
    "smilesCode": "NCCn1cc(-c2nc(-c3c[nH]c4ncccc34)cs2)c2ccccc21",
    "growth, %": 51.3
  }
]

Give the measured growth of "C=C(C)[C@@H]1CC[C@]2(C=O)CC[C@]3(C)[C@H](CC[C@@H]4[C@@]5(C)C/C(=C/c6cccnc6)C(=O)C(C)(C)[C@@H]5CC[C@]43C)[C@@H]12" .
-33.9

Give the measured growth of "COc1ccc(C(=O)c2cc(OC)c(OC)c(OC)c2)cc1/C=C/C(=O)c1cc(OC)c(OC)c(OC)c1" .
66.2

Give the measured growth of "CN1CCN(c2nc(-c3csc(-c4cccs4)n3)cc3ccccc23)CC1" .
59.8

Give the measured growth of "CC(=O)Nc1cc(F)cc(C(F)(F)F)c1Cl" .
92.8

Give the measured growth of "O=C(O)c1cccc2c1Cc1cc([N+](=O)[O-])ccc1-2" .
103

Give the measured growth of "COc1ccc2c(c1)c(-c1nc(-c3cn(C)c4ncccc34)cs1)cn2CCN" .
66.6

Give the measured growth of "C/C(=C(/c1ccccc1)c1ccc(N2C(=O)c3cccc4c(NCc5ccccc5)ccc(c34)C2=O)cc1)c1ccccc1" .
68.8

* * *

# System: SK-MEL-2 melanoma
# experiment: NCI-60 one-dose screen, 48 h
# conditionsUsed: 10 µM unless noted
About 83,000 compounds went through this panel and 20% of them were active in at least one assay; those are over-represented in the sample as a whole. Active and inactive are the calls of the source. How the source made its calls: active means growth percent below 10; inactive means the rest.
The categories you may choose from are YES = active, NO = inactive

Some entries whose results are on file:
[
  {
    "compound": "COc1ccc(NC(=O)c2ccc3c(c2)nc(-c2cc4ccccc4[nH]c2=O)n3-c2cc(C(C)(C)C)[nH]n2)cc1",
    "measuredOn": "SK-MEL-2 melanoma",
    "assignedLabel": "NO"
  },
  {
    "compound": "COc1cc(-c2cc3ncccc3c3nc(N)c4cccnc4c23)cc(OC)c1OC",
    "measuredOn": "SK-MEL-2 melanoma",
    "assignedLabel": "NO"
  }
]

Any idea what this test logged for "O=C(/C=C/c1ccc2ccccc2c1)Nc1ncc(Cc2ccccc2)s1" ?
NO

Any idea what this test logged for "O=C1/C(=C\c2ccc(Br)o2)SC(=S)N1CCc1ccc(O)cc1" ?
NO

Any idea what this test logged for "COc1cc(-c2c(C#N)c(-c3cccs3)nc3c2c(-c2ccccc2)nn3-c2ccccc2)ccc1O" ?
NO

Any idea what this test logged for "CN(C)c1ccc(-c2ccc(-c3ccc(C(=N)N)c(F)c3)s2)cc1" ?
YES

Any idea what this test logged for "COc1cnc2c(c1)C(=O)c1c-2n(CCCNC2=NCCS2)c(=O)c2cc([N+](=O)[O-])ccc12" ?
NO

Any idea what this test logged for "CC1(C)[C@@H](O)CC[C@]2(C)[C@H]3CC[C@@H]4[C@H]5[C@H](C(=O)/C=C/c6ccc(C(F)(F)F)cc6)CC[C@]5(CO)CC[C@@]4(C)[C@]3(C)CC[C@@H]12" ?
NO

Any idea what this test logged for "OCCNc1nc(Nc2ccc(Cl)c(Cl)c2)nc2ccccc12" ?
NO

Any idea what this test logged for "COc1ccc2c(c1)c(-c1nc(-c3c[nH]c4ncccc34)cs1)cn2CCCN1CCCCC1" ?
NO

Any idea what this test logged for "O=C(NO)c1ccc(Cn2c(=O)n(CCc3ccc(O)cc3)c(=O)c3ccccc32)cc1" ?
NO

* * *

# Test system: SNB-75 CNS
# experiment: NCI-60 one-dose screen, 48 h (100 = growth as untreated, 0 = no growth, -100 = all killed)
# conditionsUsed: 10 µM unless noted
About 83,000 compounds went through this panel and 20% of them were active in at least one assay; those are over-represented in the sample as a whole. Active and inactive are the calls of the source. Rule for the calls: active = growth percent below 10; inactive = the rest.
Entries and their growth values follow.

[
  {
    "compound": "Cn1c(/C(C#N)=C/c2ccc3ccccc3c2)cc2ccccc21",
    "measuredOn": "SNB-75 CNS",
    "reported": "15.3% (inactive)"
  }
]

Give the measured growth of "CCOC(=O)N1CCN(CCCCOc2ccc(C(C)(C)CC)cc2)CC1" .
106% (inactive)

Give the measured growth of "O=C(/C(=C(\C(=O)c1ccccc1)c1ccccc1)c1ccccc1)c1ccccc1" .
72.8% (inactive)

Give the measured growth of "Cc1ccc(-c2nn(Cc3cn(-c4cc(C)nc5ccccc45)nn3)c3ncnc(N)c23)cc1" .
15.5% (inactive)

Give the measured growth of "Cc1cc(Cl)nc(N(CCCNc2ccnc3cc(Cl)ccc23)Cc2ccco2)n1" .
59.6% (inactive)

Give the measured growth of "CC/C=C\C[C@H]1CC=C2C(=O)C=C[C@@H]2CC=CCCCC(=O)O[C@@H](CCCCC)CC=C2C(=O)C=C[C@@H]2CC=CCCCC(=O)O[C@@H](CCCCC)CC=C2C(=O)C=C[C@@H]2CC=CCCCC(=O)O[C@@H](CCCCC)CC=C2C(=O)C=C[C@@H]2CC=CCCCC(=O)O1" .
65.2% [7.9 µM] (inactive)

Give the measured growth of "Cc1cc(N2CCCCC2)nc(N(CCCNc2ccnc3cc(Cl)ccc23)Cc2ccco2)n1" .
54.3% (inactive)

Give the measured growth of "O=c1[nH]c(=S)[nH]c2nc[nH]c12" .
84.6% (inactive)

Give the measured growth of "CN(C)CCCCC(C(=O)CBr)(c1ccccc1)c1ccccc1" .
46% (inactive)

Give the measured growth of "Nc1c(C(=O)Nc2cccc3ccccc23)sc2nc3c(cc12)CCCC3" .
37.9% (inactive)

Give the measured growth of "COC(c1ccccc1)(c1ccccc1)c1ccccc1" .
87.7% (inactive)

Give the measured growth of "CCN(CC)c1ccc(/C=C/c2cc(C)c3ccccc3n2)cc1" .
42.7% (inactive)

Give the measured growth of "OCCNc1nc(Nc2ccc(Cl)c(Cl)c2)nc2ccccc12" .
61.1% (inactive)

Give the measured growth of CCOC(=O)C1OC1(c1ccccc1)c1ccccc1 (stereo not drawn) .
108% (inactive)

Give the measured growth of "C[C@H]1[C@@H]2[C@H]3CC[C@@H]4[C@@]5(C)Cc6c([nH]c7ccccc67)C(C)(C)[C@@H]5CC[C@@]4(C)[C@]3(C)CC[C@]23CO[C@]1(C)[C@@H](C(=O)/C=C/c1ccccn1)C3" .
90.9% (inactive)

Give the measured growth of "CC1(C)C=CC[C@]2(C)[C@H]3CC[C@@H]4[C@H]5[C@H](C(=O)/C=C/c6cccnc6)CC[C@]5(CO)CC[C@@]4(C)[C@]3(C)CC[C@@H]12" .
-89.8% (active)

Give the measured growth of CC(Cc1ccco1)C(=O)NC(N)=O (stereo not drawn) .
91.8% (inactive)

Give the measured growth of "Cn1cc(-c2csc(-c3cn(C(=O)OC(C)(C)C)c4ccc(Br)cc34)n2)c2cccnc21" .
78.9% (inactive)

* * *

# Tested on: NCI-H460 lung
# experiment: NCI-60 one-dose screen, 48 h (100 = growth as untreated, 0 = no growth, -100 = all killed)
# conditionsUsed: 10 µM unless noted
The panel holds about 83,000 compounds, 20% with a hit somewhere; the sample as a whole holds those more often.
# growth >= 30% gives 1, anything below gives -1

Some entries whose results are on file:
[
  {
    "compound": "O=C(NC1=CC(=O)c2ccccc2C1=O)c1ccccc1",
    "measuredOn": "NCI-H460 lung",
    "assignedLabel": -1
  },
  {
    "compound": "Cn1nc(-c2ccccc2)c2c(-c3ccccc3)onc2c1=O",
    "measuredOn": "NCI-H460 lung",
    "assignedLabel": -1
  },
  {
    "compound": "Nc1c2c(nc3ccc(Br)cc13)CC(c1ccccc1)CC2=O (stereo not given)",
    "measuredOn": "NCI-H460 lung",
    "assignedLabel": -1
  },
  {
    "compound": "COc1ccc(-c2n[nH]nc2-c2cc3ccccc3s2)cc1O",
    "measuredOn": "NCI-H460 lung",
    "assignedLabel": -1
  },
  {
    "compound": "CC(Cc1ccco1)C(=O)NC(N)=O (stereo not given)",
    "measuredOn": "NCI-H460 lung",
    "assignedLabel": 1
  },
  {
    "compound": "N#CC1C(=N)Cc2ccccc2-c2ccccc21 (stereo not given)",
    "measuredOn": "NCI-H460 lung",
    "assignedLabel": -1
  },
  {
    "compound": "C=C(C)[C@@H]1CC[C@]2(c3nnc(-c4ccncc4)o3)CC[C@]3(C)[C@H](CC[C@@H]4[C@@]5(C)CCC(=O)NC(C)(C)[C@@H]5CC[C@]43C)[C@@H]12",
    "measuredOn": "NCI-H460 lung",
    "assignedLabel": 1
  },
  {
    "compound": "CC(=O)O[C@@H]1CCN2C(=O)N(C)c3ccccc3[C@@H]2C1",
    "measuredOn": "NCI-H460 lung",
    "assignedLabel": 1
  }
]

Form field: growth at least 30%? Entry: "Cc1cc(N2CCOCC2)nc(N(CCCNc2ccnc3cc(Cl)ccc23)Cc2ccco2)n1"
-1

Form field: growth at least 30%? Entry: O=C1c2ccccc2NC(c2cn(-c3ccccc3)nc2-c2cccnc2)N1Cc1ccccc1 (stereo not given)
1
